test system: OVCAR-3 ovarian; experiment: NCI-60 one-dose screen, 48 h; conditions: 10 µM unless noted
About 83,000 compounds went through this panel and 20% of them were active in at least one assay; those are over-represented in the sample as a whole. Calls of active or inactive are those of the source. The calls were made as follows: active = growth percent below 10; inactive = the rest.
Output constraint: value belongs to active, inactive

CCN(CC)CCOc1ccc(/C(=C(\C)Cc2ccc(OC)cc2)c2ccc(O)cc2)cc1	inactive
CCCC1Cc2cc(-n3nc(C)c4c3CC(C)(C)CC4=O)cc(NC3CCC(O)CC3)c2C(=O)N1 (centres undefined)	inactive
CC(=O)[C@H]1CC[C@]2(C)[C@@H]1CC[C@@H]1[C@@]3(C)C/C(=C/c4cccnc4)C(=O)C(C)(C)[C@@H]3CC[C@]12C	inactive
Nc1ncc(-c2ccc3ncnc(N4CCc5cc(F)c(Cl)cc54)c3c2)cn1	inactive
CC(C)(C)CC(C)(C)Nc1c(-c2c(O)c3ccccc3oc2=O)nc2sccn12	inactive
C=C(c1ccc(C(=O)O)c(F)c1)c1cc2c(cc1C)C(C)(C)C=CC2(C)C	inactive

**Q:** Called result for CCN1CCN(c2cc(C(=O)Nc3cccc(Nc4ccc5c(OC)cccc5n4)c3)cc(C(F)(F)F)c2)CC1
**A:** inactive

**Q:** Called result for O=C1/C(=C/c2cccc(Br)c2)COc2ccc(O)c(O)c21
**A:** active

**Q:** Called result for CCN(CC)CCN1C(=O)c2c(c(C)c3c(oc4cc(OC)ccc43)c2C)C1=O
**A:** inactive

---

Here, each record is paired with measured growth data.
system: PC-3 prostate; test: NCI-60 one-dose screen, 48 h (100 = growth as untreated, 0 = no growth, -100 = all killed); settings: 10 µM unless noted
Compounds without any hit were thinned out: in the full panel of roughly 83,000, 20% have a hit.
Quick note: give the figure in %, leave out the unit.

COc1cc(-c2ccc(-c3ccc(C(=N)N)s3)s2)cc(OC)c1OC	47.1
O=C(/C=C/c1ccco1)Nc1ncc(Cc2ccc(F)cc2)s1	30.2
Fc1ccc(/C=C/c2cc(/C=C/c3ccc(F)cc3)n(-c3cc(F)cc(F)c3)n2)cc1	76.4
CCOC(=O)CC1CSC(N/N=C/c2ccc(O)cc2)=N1 (configuration not stated)	89.5

**Q:** Which growth value is on record for O=C(O)/C=C/c1cn(-c2ccccc2)nc1-c1ccc(F)cc1 ?
**A:** 84.4

**Q:** Which growth value is on record for COc1ccc(N2C(=O)/C(=C/C(Cl)=C/c3ccc([N+](=O)[O-])cc3)SC2=S)cc1 ?
**A:** 2.17

**Q:** Which growth value is on record for O=[N+]([O-])c1ccc(N/N=C\c2cc(Cl)ccc2O)nc1 ?
**A:** 24.5

**Q:** Which growth value is on record for O=C(Nc1ccccc1CNc1nc(Nc2ccc(OCCN3CCCC3)cc2)ncc1Cl)NC1CCCCC1 ?
**A:** 84

**Q:** Which growth value is on record for O=C1c2ccccc2C(=O)c2cc(Cn3c[n+](Cc4ccc5ccccc5c4)c4ccccc43)ccc21 ?
**A:** 27.7

**Q:** Which growth value is on record for CS(=O)(=O)c1ccc(/C(=N/NC(N)=S)c2ccc(F)cc2)cc1 ?
**A:** 103

**Q:** Which growth value is on record for O=C(Nc1ncc(Cc2ccc(Cl)cc2)s1)C1=NCCCCN1 ?
**A:** 101

**Q:** Which growth value is on record for CCCCCN(CCCCC)CC(O)c1c(Cl)ccc2ccccc12 (configuration not stated) ?
**A:** 75.2

**Q:** Which growth value is on record for N=C(N)c1ccc(-c2ccc(-c3ccccc3)s2)nc1 ?
**A:** 80.5

**Q:** Which growth value is on record for CCN(CC)CCN1C(=O)c2c(c(C)c3c(oc4cc(OC)ccc43)c2C)C1=O ?
**A:** 92

**Q:** Which growth value is on record for COC(=O)CCc1c(/C=C2\N=C(c3ccc[nH]3)C=C2OC)[nH]c(C)c1C(=O)OCc1ccccc1 ?
**A:** 6.14

**Q:** Which growth value is on record for O=C1CC2C=CCN2C=C1NC(=O)c1ccccc1 (configuration not stated) ?
**A:** 99.7

**Q:** Which growth value is on record for O=C1c2c(c3c4cccnc4[nH]c3c3ccc4ccccc4c23)C(=O)N1O ?
**A:** 43.1
